The reported numbers originate from FireProtDB (doi:10.1016/0022-2836(92)90562-x).

B1: Ribonuclease, P00648 (parent)
chain: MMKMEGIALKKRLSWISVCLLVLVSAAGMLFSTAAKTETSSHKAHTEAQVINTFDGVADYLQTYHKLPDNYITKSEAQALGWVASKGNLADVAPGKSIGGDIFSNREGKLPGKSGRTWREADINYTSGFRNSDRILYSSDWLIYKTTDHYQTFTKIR

Variants of: B1
condition-context: Bacillus amyloliquefaciens; pH 6.3; 25 °C; Urea; Fluorescence; MES-NaOH 450 mM; reversible: yes; structure 1BNI; whole UniProt chain shown
So basically every entry gets a class from its ddG of mutation (higher = less stable), ranges being low bracket: < 0.8 kcal/mol; middle bracket: ≥ 0.8 kcal/mol and < 2 kcal/mol; high bracket: ≥ 2 kcal/mol

[
  {
    "variant-key": "Q78S",
    "category-label": "low bracket"
  },
  {
    "variant-key": "D55A",
    "category-label": "middle bracket"
  },
  {
    "variant-key": "N124A",
    "category-label": "middle bracket"
  }
]

Request: Please report the category associated with `T73A` , nothing else.
Response: middle bracket

Request: Please classify: `V57A`
Response: high bracket

Request: Looking at `S139A` , which class would you pick?
Response: high bracket
